Source: patent US20150203579A1

# assay system: T1, recombinant cynomolgus monkey PD-1 expressed with a C-terminal myc-myc-hexahistidine tag (cynomolgus monkey (Macaca fascicularis))
# T1 construct: monomeric; also called MfPD-1-MMH
# T1 chain: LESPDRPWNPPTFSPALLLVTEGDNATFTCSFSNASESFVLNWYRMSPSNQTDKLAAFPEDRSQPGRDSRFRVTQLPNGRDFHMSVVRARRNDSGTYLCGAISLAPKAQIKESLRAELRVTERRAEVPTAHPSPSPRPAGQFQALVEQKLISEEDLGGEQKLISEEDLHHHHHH
# method notes: SPR, mAb captured, 37C;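 further: rate constants from fitting sensorgrams to a 1:1 binding model, with Kd computed as koff/kon and half-life as ln2/(60·koff), PD-1 flowing over anti-PD-1 antibody surfaces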
observation type: koff (s⁻¹)
Provide the reading as a plain figure in s⁻¹.

get_value(item= H1M7800N (antibody, mouse IgG1, V domains shown, Human variable regions, mouse IgG1 Fc) VH: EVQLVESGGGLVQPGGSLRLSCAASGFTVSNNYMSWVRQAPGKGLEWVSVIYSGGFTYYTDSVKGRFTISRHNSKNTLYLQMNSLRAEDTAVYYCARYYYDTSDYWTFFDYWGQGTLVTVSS VL: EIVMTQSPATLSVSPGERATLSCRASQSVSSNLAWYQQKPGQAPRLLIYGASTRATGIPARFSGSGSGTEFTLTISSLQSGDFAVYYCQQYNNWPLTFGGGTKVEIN , readout=koff) returns 0.0443

get_value(item= H1M7799N (antibody, mouse IgG1, V domains shown, Human variable regions, mouse IgG1 Fc) VH: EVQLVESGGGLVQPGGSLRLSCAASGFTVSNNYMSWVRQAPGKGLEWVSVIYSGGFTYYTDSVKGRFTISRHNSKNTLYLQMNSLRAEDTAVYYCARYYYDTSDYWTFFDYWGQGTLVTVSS VL: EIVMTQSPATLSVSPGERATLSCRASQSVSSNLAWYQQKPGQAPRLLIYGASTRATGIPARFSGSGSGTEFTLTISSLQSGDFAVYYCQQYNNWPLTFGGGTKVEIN , readout=koff) returns 0.0467

get_value(item= H1M7789N (antibody, mouse IgG1, V domains shown, Human variable regions, mouse IgG1 Fc) VH: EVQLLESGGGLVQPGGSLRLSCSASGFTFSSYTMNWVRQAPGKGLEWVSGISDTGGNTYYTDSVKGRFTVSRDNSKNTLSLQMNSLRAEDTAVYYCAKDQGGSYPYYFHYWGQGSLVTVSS VL: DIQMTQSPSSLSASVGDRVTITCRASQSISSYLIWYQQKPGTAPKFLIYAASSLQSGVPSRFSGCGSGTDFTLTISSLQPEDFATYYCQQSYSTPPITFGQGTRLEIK , readout=koff) returns 0.000408
